Tested on: 317291-083-R-J1-PDC complex spheroids, viability;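 further: spheroids exposed to compounds for one week before readout; percent viability relative to DMSO vehicle wells taken as 100%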
Test: Anticancer human tumor 317291-083-R-J1-PDC patient-derived soft tissue sarcoma cell line growth inhibition [GQUAD]
Details: second compound 10 µM; first compound 0.316 µM; active compounds read low
I'd appreciate it if you could supply viability, T/C values for the items below.
Give bare numbers, in %.

compound	outcome-measure	scale-unit	reading
COc1ccc([C@@H](O)c2cc(-c3ncnc4cc(N5CCOCC5)ccc34)c(F)cc2Cl)nn1 + Cc1[nH]c2ccc(F)cc2c1-c1nc2c3cccnc3c3ncccc3c2[nH]1	viability, T/C	%	79
COc1ncnc(C2CC2)c1-c1ncc2cnn(Cc3ccc(-c4nc(C(F)(F)F)cn4C(C)C)cc3)c2n1 + Cc1[nH]c2ccc(F)cc2c1-c1nc2c3cccnc3c3ncccc3c2[nH]1	viability, T/C	%	31.1

Kindly consider the entry below.
Kindly note: 317291-083-R-J1-PDC complex spheroids, viability, CC1COCCN1c1cc(C2(S(C)(=N)=O)CC2)nc(-c2ccnc3[nH]ccc23)n1 (stereo not drawn) + Cc1[nH]c2ccc(F)cc2c1-c1nc2c3cccnc3c3ncccc3c2[nH]1 , viability, T/C value reported: 86.4
